target: Adenosine receptor A2a (Homo sapiens, UniProt P29274); test: Displacement of [3H]ZM241385 from human adenosine A2A receptor expressed in CHO cells; format: cell-based; parameters: concentration or dose not given beside the values; conditions: concentration not given here
Sequence (P29274 whole entry): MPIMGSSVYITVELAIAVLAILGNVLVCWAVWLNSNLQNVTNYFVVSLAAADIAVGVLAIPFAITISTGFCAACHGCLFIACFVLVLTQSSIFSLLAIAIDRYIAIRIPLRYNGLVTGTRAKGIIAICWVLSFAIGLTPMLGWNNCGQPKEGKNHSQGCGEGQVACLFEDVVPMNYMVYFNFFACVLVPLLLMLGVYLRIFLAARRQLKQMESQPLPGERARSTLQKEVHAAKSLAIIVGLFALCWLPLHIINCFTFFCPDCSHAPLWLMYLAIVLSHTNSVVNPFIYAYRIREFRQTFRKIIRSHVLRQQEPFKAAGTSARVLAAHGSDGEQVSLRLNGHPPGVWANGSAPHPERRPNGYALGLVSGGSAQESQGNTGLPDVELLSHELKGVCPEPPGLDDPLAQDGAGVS
Outcome Measure: inhibition (%)

Record Smiles: O=C(Nc1ccncc1)Nc1nc2nn(CCCOCc3ccccc3)cc2c2nc(-c3ccco3)nn12
Readout Number: 89
--
Record Smiles: O=C(Nc1ccncc1)Nc1nc2nn(CCCO)cc2c2nc(-c3ccco3)nn12
Readout Number: 95
--
Record Smiles: O=C(Nc1cccnc1)Nc1nc2nn(CCOCc3ccccc3)cc2c2nc(-c3ccco3)nn12
Readout Number: 82
--
Record Smiles: O=C(Nc1cccnc1)Nc1nc2nn(CCO)cc2c2nc(-c3ccco3)nn12
Readout Number: 93
--
Record Smiles: O=C(Nc1ccncc1)Nc1nc2nn(CCO)cc2c2nc(-c3ccco3)nn12
Readout Number: 96
--
Record Smiles: O=C(Nc1ccncc1)Nc1nc2nn(CCOCc3ccccc3)cc2c2nc(-c3ccco3)nn12
Readout Number: 97
